assayedSystem: MMP-1 (Homo sapiens, UniProt P03956)
Sequence (P03956 100-469): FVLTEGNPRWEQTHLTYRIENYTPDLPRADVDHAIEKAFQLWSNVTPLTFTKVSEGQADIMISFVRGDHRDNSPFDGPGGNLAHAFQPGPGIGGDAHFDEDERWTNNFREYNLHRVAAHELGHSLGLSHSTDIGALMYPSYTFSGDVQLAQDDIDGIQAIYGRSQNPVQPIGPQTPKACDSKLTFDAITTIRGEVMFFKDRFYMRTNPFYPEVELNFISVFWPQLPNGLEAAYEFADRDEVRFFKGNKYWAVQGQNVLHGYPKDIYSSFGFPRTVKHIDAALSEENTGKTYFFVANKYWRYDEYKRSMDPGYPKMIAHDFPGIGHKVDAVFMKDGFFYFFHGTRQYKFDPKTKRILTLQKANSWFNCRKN
measuredParameter: IC50

# molecule, result
measured = [
    ("N[C@@H]1CCCC[C@@H]1NC(=O)P(=O)(O)O (relative stereo) [Compound 11]", "> 100 µM"),
    ("C[C@@H](NC(=O)P(=O)(O)O)C1CCCCC1 [Compound 9]", "> 100 µM"),
]

Then this molecule:
Any idea what IC50 was measured for O=C(N[C@@H]1C[C@@H]2CC[C@H]1C2)P(=O)(O)O (relative stereo) [Compound 10] ? > 100 µM
